Each recorded value in this set is attributed to PubChem BioAssay.

# key: entry, value: remaining activity
Test system: Aerobactin synthetase IucA (Klebsiella pneumoniae, hypervirulent)
Assay: IucA enzyme inhibition, biochemical, LOPAC library, absorbance readout (AID 1346212);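 also: 100% = no compound wells and 0% = no enzyme wells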
Settings: IucA enzyme assay, absorbance (OD) readout; hits give low values;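 tested at 8 µM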
Activity calls are given as the source filed them. No rule for the calls is given here.

- compound: "CN1CCN(C2=Nc3cc(Cl)ccc3Nc3ccccc32)CC1"
  tested-target: "Aerobactin synthetase IucA (Klebsiella pneumoniae, hypervirulent)"
  remaining activity: "127% (inactive)"
- compound: "CCCC(=O)NCCc1c2n(c3ccc(OC)cc13)Cc1ccccc1-2"
  tested-target: "Aerobactin synthetase IucA (Klebsiella pneumoniae, hypervirulent)"
  remaining activity: "89.8% (inactive)"
- compound: "C=CCN1CCc2cccc3c2[C@H]1Cc1ccc(O)c(O)c1-3"
  tested-target: "Aerobactin synthetase IucA (Klebsiella pneumoniae, hypervirulent)"
  remaining activity: "110% (inactive)"
- compound: "CCOC(=O)c1cnc2c(cnn2CC)c1NN=C(C)C"
  tested-target: "Aerobactin synthetase IucA (Klebsiella pneumoniae, hypervirulent)"
  remaining activity: "124% (inactive)"
- compound: "CCNC(=O)[C@H]1O[C@@H](n2cnc3c(N)nc(NCCc4ccc(CCC(=O)O)cc4)nc32)C(O)[C@H]1O (stereo not given in full)"
  tested-target: "Aerobactin synthetase IucA (Klebsiella pneumoniae, hypervirulent)"
  remaining activity: "109% (inactive)"
- compound: "CCCNCC(O)COc1ccccc1C(=O)CCc1ccccc1 (stereo not given)"
  tested-target: "Aerobactin synthetase IucA (Klebsiella pneumoniae, hypervirulent)"
  remaining activity: "112% (inactive)"
- compound: "Oc1ccc2c3c1O[C@H]1[C@@H](O)CC[C@@]4(O)[C@@H](C2)N(CC2CCC2)CC[C@]314"
  tested-target: "Aerobactin synthetase IucA (Klebsiella pneumoniae, hypervirulent)"
  remaining activity: "118% (inactive)"
- compound: "C[N+](C)(C)CCOC(N)=O"
  tested-target: "Aerobactin synthetase IucA (Klebsiella pneumoniae, hypervirulent)"
  remaining activity: "119% (inactive)"
- compound: "CCCCCN(CCCCC)C(=O)C(CCC(=O)O)NC(=O)c1ccc(Cl)c(Cl)c1 (stereo not given)"
  tested-target: "Aerobactin synthetase IucA (Klebsiella pneumoniae, hypervirulent)"
  remaining activity: "110% (inactive)"
- compound: "NCCS(=O)O"
  tested-target: "Aerobactin synthetase IucA (Klebsiella pneumoniae, hypervirulent)"
  remaining activity: "101% (inactive)"
- compound: "COc1cc2c(c(OC)c1OC)-c1ccc(OC)c(=O)cc1[C@@H](NC(C)=O)CC2"
  tested-target: "Aerobactin synthetase IucA (Klebsiella pneumoniae, hypervirulent)"
  remaining activity: "112% (inactive)"
- compound: "Cc1nccc2c1[nH]c1ccccc12"
  tested-target: "Aerobactin synthetase IucA (Klebsiella pneumoniae, hypervirulent)"
  remaining activity: "99.4% (inactive)"
- compound: "COc1cccc(OC)c1OCCNCC1COc2ccccc2O1 (stereo not given)"
  tested-target: "Aerobactin synthetase IucA (Klebsiella pneumoniae, hypervirulent)"
  remaining activity: "105% (inactive)"
- compound: "NCCc1ccc(O)c(O)c1"
  tested-target: "Aerobactin synthetase IucA (Klebsiella pneumoniae, hypervirulent)"
  remaining activity: "104% (inactive)"
- compound: "COc1ccccc1N1CCN(CCCCN2C(=O)c3ccccc3C2=O)CC1"
  tested-target: "Aerobactin synthetase IucA (Klebsiella pneumoniae, hypervirulent)"
  remaining activity: "113% (inactive)"
- compound: "CNCC[C@@H](Oc1ccc(C(F)(F)F)cc1)c1ccccc1"
  tested-target: "Aerobactin synthetase IucA (Klebsiella pneumoniae, hypervirulent)"
  remaining activity: "105% (inactive)"
- compound: "CCc1cccc(N(C)C(N)=Nc2cccc3ccccc23)c1"
  tested-target: "Aerobactin synthetase IucA (Klebsiella pneumoniae, hypervirulent)"
  remaining activity: "96.2% (inactive)"
- compound: "Cc1ncc(CNC(=O)N(CCCl)N=O)c(N)n1"
  tested-target: "Aerobactin synthetase IucA (Klebsiella pneumoniae, hypervirulent)"
  remaining activity: "113% (inactive)"
- compound: "CCCN1CCC[C@H](c2cccc(O)c2)C1"
  tested-target: "Aerobactin synthetase IucA (Klebsiella pneumoniae, hypervirulent)"
  remaining activity: "98.7% (inactive)"
- compound: "c1ccc2sc(C3(N4CCCCC4)CCCCC3)cc2c1"
  tested-target: "Aerobactin synthetase IucA (Klebsiella pneumoniae, hypervirulent)"
  remaining activity: "110% (inactive)"
- compound: "Clc1ccc(Cn2c(CN3CCCC3)nc3ccccc32)cc1"
  tested-target: "Aerobactin synthetase IucA (Klebsiella pneumoniae, hypervirulent)"
  remaining activity: "115% (inactive)"
- compound: "O=NN(CCCl)C(=O)NCCCl"
  tested-target: "Aerobactin synthetase IucA (Klebsiella pneumoniae, hypervirulent)"
  remaining activity: "115% (inactive)"
- compound: "Cc1ccc(S(=O)(=O)N[C@@H](CCCCN)C(=O)CCl)cc1"
  tested-target: "Aerobactin synthetase IucA (Klebsiella pneumoniae, hypervirulent)"
  remaining activity: "114% (inactive)"
- compound: "CCOC(=O)c1ncn2c1CN(C)C(=O)c1cc(F)ccc1-2"
  tested-target: "Aerobactin synthetase IucA (Klebsiella pneumoniae, hypervirulent)"
  remaining activity: "100% (inactive)"
- compound: "NC(N)=Nc1nc(CSCC/C(N)=N/S(N)(=O)=O)cs1"
  tested-target: "Aerobactin synthetase IucA (Klebsiella pneumoniae, hypervirulent)"
  remaining activity: "102% (inactive)"
